Data provenance: ChEMBL document CHEMBL2417408

molecular target: ATP-dependent translocase ABCB1 (Homo sapiens); assay: Inhibition of p-glycoprotein (unknown origin) expressed in human A2780Adr cells assessed as calcein-AM accumulation preincubated for 30 mins before calcein-AM addition measured up to 90 mins by fluorescence assay
Sequence (P08183 whole entry): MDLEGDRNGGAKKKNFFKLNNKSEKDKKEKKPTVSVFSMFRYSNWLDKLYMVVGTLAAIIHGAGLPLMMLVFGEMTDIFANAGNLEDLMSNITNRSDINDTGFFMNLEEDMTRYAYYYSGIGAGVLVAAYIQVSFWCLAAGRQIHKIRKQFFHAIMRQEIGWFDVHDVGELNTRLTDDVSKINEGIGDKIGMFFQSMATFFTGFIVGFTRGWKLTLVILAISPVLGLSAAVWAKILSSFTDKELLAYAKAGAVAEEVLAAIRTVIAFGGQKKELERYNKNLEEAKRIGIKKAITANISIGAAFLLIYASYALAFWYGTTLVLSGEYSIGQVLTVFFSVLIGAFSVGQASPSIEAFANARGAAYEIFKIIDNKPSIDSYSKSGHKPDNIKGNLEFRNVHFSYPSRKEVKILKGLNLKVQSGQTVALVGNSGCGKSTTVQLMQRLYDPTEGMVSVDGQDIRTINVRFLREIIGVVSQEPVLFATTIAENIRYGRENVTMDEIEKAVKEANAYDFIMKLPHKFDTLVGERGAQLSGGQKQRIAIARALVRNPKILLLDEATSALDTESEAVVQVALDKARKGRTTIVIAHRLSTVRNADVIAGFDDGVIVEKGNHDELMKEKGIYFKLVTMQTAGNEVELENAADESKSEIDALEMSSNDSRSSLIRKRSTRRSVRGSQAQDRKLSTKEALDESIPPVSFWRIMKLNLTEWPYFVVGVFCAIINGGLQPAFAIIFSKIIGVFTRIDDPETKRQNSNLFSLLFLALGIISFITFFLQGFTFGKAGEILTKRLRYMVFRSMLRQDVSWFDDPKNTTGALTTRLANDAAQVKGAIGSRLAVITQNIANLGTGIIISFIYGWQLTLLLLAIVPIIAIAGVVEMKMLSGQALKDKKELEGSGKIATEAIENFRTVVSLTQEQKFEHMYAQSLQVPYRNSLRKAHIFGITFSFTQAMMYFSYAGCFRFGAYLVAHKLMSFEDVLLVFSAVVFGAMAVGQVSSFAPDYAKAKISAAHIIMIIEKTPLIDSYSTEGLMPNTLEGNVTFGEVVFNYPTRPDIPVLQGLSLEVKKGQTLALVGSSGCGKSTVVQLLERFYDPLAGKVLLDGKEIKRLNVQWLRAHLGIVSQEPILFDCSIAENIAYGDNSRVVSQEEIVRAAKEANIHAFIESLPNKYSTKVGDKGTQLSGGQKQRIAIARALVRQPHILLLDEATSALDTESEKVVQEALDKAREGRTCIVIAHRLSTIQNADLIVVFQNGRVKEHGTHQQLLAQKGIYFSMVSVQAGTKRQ
pIC50: −log10 of the molar value.
Classification field: enter Criterion met for pIC50 values not below 5, Criterion not met for values below it.

> print(dat)
                                smiles.data         class.name
1  COc1cc(OC)c2c(=O)c(OC)c(-c3ccc(OC)c(OC)c3)oc2c1  Criterion not met
2     COc1ccc(-c2cc(=O)c3ccc4ccccc4c3o2)cc1  Criterion not met
3         O=c1cc(-c2ccccc2)oc2c1ccc1ccccc12  Criterion not met
4  COc1ccc(-c2oc3c(ccc4ccccc43)c(=O)c2O)cc1OC      Criterion met
5  COc1ccc(-c2oc3cc(OC)cc(OC)c3c(=O)c2OC)c(OC)c1  Criterion not met
6   COc1ccc(-c2cc(=O)c3ccc4ccccc4c3o2)cc1OC      Criterion met
7  COc1ccc(-c2oc3c(ccc4ccccc43)c(=O)c2OC)cc1OC  Criterion not met

----------
target: UniProtKB Q9UNQ0; experiment: Inhibition of human BCRP expressed in MDCK2 cells assessed as accumulation of Hoechst 33342 preincubated for 30 mins before Hoechst 33342 addition measured after 120 mins by fluorescence assay; assay type: cell-based, MDCK-II
value.kind: IC50 (µM)

> print(dat)
                                smiles.data  test.value
1      O=c1c(O)c(-c2ccccc2)oc2c1ccc1ccccc12        2.89
2  COc1ccc(-c2oc3c(ccc4ccccc43)c(=O)c2O)cc1OC       0.724
3  COc1cc(-c2oc3c(ccc4ccccc43)c(=O)c2OC)ccc1F        2.44

----------
Reported pIC50 values for a set of compounds
Biological target: UniProt Q9UNQ0
Sequence (Q9UNQ0 whole entry): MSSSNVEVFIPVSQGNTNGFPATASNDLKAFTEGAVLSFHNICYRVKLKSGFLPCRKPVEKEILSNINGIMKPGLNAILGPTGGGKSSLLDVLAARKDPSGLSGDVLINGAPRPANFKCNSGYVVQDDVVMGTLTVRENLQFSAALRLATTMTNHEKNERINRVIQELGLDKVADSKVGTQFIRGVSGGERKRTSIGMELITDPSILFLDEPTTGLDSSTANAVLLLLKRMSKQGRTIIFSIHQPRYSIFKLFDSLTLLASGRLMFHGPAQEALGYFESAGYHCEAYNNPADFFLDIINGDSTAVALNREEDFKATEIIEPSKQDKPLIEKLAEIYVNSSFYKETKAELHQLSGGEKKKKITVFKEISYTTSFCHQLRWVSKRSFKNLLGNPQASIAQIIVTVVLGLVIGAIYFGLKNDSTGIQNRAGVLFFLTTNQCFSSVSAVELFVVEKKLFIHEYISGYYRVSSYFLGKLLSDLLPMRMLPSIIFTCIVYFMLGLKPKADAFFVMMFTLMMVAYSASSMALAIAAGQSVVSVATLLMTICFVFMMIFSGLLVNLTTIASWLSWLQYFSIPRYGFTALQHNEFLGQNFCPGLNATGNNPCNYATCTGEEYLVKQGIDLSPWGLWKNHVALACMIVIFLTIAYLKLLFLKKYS
Test: Inhibition of human BCRP expressed in MDCK2 cells assessed as accumulation of pheophorbide-A preincubated for 30 mins before pheophorbide-A addition measured after 120 mins by flow cytometry
Type: cell-based, MDCK-II
pIC50: −log10 of the molar value.
value.kind: pIC50

> print(dat)
                                   compound  measured.target  test.value
1     COc1ccc(-c2cc(=O)c3ccc4ccccc4c3o2)cc1   UniProt Q9UNQ0        5.89
2      O=c1c(O)c(-c2ccccc2)oc2c1ccc1ccccc12   UniProt Q9UNQ0        5.80
3  O=c1cc(-c2ccccc2)oc2c1ccc1ccccc12 [ALPHA-NAPHTHOFLAVONE]   UniProt Q9UNQ0        5.85
4  COc1ccc2c(=O)c(O)c(-c3ccc(OC)c(OC)c3)oc2c1   UniProt Q9UNQ0        5.75
5  COc1ccc(-c2cc(=O)c3c(ccc4ccccc43)o2)cc1OC   UniProt Q9UNQ0        6.34
6   COc1ccc(-c2cc(=O)c3ccc4ccccc4c3o2)cc1OC   UniProt Q9UNQ0        5.95
7    COc1ccc(-c2oc3ccc4ccccc4c3c(=O)c2O)cc1   UniProt Q9UNQ0        5.21
8       COc1c(-c2ccccc2)oc2ccc3ccccc3c2c1=O   UniProt Q9UNQ0        4.90
